// compounds with IC50 on Dihydrofolate reductase (Mus musculus), multi-source literature
Molecular target: Dihydrofolate reductase (Mus musculus)
Sequence (P00375 whole entry): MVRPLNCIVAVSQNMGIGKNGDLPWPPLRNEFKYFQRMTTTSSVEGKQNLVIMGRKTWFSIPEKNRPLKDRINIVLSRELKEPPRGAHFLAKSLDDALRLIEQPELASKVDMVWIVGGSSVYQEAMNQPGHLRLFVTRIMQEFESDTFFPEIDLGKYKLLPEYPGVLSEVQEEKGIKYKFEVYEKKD
metric: IC50 (nM)

| compound | assay.system | metric | numeric.result |
| --- | --- | --- | --- |
| CN(Cc1cnc2nc(N)nc(N)c2n1)c1ccc(C(=O)NC(CCCNC(=O)CBr)C(=O)O)cc1 (configuration not stated) | Dihydrofolate reductase (Mus musculus) | IC50 | 46 |
| CN(Cc1cnc2nc(N)nc(N)c2n1)c1ccc(C(=O)NC(CCCN)C(=O)O)cc1 (configuration not stated) | Dihydrofolate reductase (Mus musculus) | IC50 | 160 |
| Nc1nc(N)c2nc(CN(C=O)c3ccc(C(=O)NC(CCCNC(=O)c4ccc(Cl)c(Cl)c4)C(=O)O)cc3)cnc2n1 (configuration not stated) | Dihydrofolate reductase (Mus musculus) | IC50 | 56 |
| CC(=O)NCCCC(NC(=O)c1ccc(NCc2cnc3nc(N)nc(N)c3n2)cc1)C(=O)O (configuration not stated) | Dihydrofolate reductase (Mus musculus) | IC50 | 28 |
| Nc1nc(N)c2nc(CNc3ccc(C(=O)NC(CCCNC(=O)c4ccccc4)C(=O)O)cc3)cnc2n1 (configuration not stated) | Dihydrofolate reductase (Mus musculus) | IC50 | 27 |
| CN(Cc1cnc2nc(N)nc(N)c2n1)c1ccc(C(=O)NCCCC(=O)NCCCC(=O)NCCCC(=O)NCCCC(=O)NCCCC(=O)NC(CCC(=O)O)C(=O)O)cc1 (configuration not stated) | Dihydrofolate reductase (Mus musculus) | IC50 | 840 |
| Nc1nc(N)c2nc(CNc3ccc(C(=O)NC(CCCCCCCCCC(=O)O)C(=O)O)cc3)cnc2n1 (configuration not stated) | Dihydrofolate reductase (Mus musculus) | IC50 | 81 |
| CN(Cc1cnc2nc(N)nc(N)c2n1)c1ccc(C(=O)NCCCC(=O)NC(CCC(=O)O)C(=O)O)cc1 (configuration not stated) | Dihydrofolate reductase (Mus musculus) | IC50 | 82 |
| Nc1nc(N)c2nc(CN(C=O)c3ccc(C(=O)NC(CCCNC(=O)c4ccccc4)C(=O)O)cc3)cnc2n1 (configuration not stated) | Dihydrofolate reductase (Mus musculus) | IC50 | 34 |
| CN(Cc1cnc2nc(N)nc(N)c2n1)c1ccc(C(=O)NC(CCCNC(=O)CCl)C(=O)O)cc1 (configuration not stated) | Dihydrofolate reductase (Mus musculus) | IC50 | 32 |
| Nc1nc(N)c2nc(CN(C=O)c3ccc(C(=O)NC(CCCNC(=O)c4ccc(Cl)cc4)C(=O)O)cc3)cnc2n1 (configuration not stated) | Dihydrofolate reductase (Mus musculus) | IC50 | 15 |
| C#CCN(Cc1ccc2nc(N)nc(O)c2c1)c1ccc(C(=O)NC(CCC(=O)O)C(=O)O)c(Cl)c1 (configuration not stated) | Dihydrofolate reductase (Mus musculus) | IC50 | 11000 |
